Listed binders paired with reported pKd
test.system: T1, insulin-like growth factor II (IGF-II), amino acids 1-67 (human, UniProt P01344 25-91)
T1 construct: recombinant; also called IGF-II (67aa); IGF2
T1 sequence (P01344 25-91): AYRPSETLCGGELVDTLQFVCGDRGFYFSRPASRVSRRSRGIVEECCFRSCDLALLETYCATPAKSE
experiment: competition SPR (BIACORE T100), affinity in solution, free ligand read on huIR-A ECD; measurement 2
Please keep in mind that pKd is minus log10 of the molar concentration; only the number is needed.

Here is how some binders turned out for pKd.
M0063-F02 Fab (Fab, V domains shown, soluble Fab (sFab); also called R0032-A01) VH: EVQLLESGGGLVQPGGSLRLSCAASGFTFSKYEMDWVRQAPGKGLEWVSVISSSGGGTIYADSVKGRFTISRDNSKNTLYLQMNSLRAEDTAMYYCARGRTLYGGAFDIWGQGTMVTVSS VL: DIQMTQSPSSLSASVGDRVTITCRASQPINTYLNWYQQRPGKAPRILIYTSSTLQSGVPSRFSGSGSGTDFTLTISSVQPEDFATYYCQQSYSFPLTFGGGTKVEIKR: 9.07
M0064-E04 Fab (Fab, V domains shown, soluble Fab (sFab); also called R0032-A03; 566A-M0064-E04) VH: EVQLLESGGGLVQPGGSLRLSCAASGFTFSVYDMNWVRQAPGKGLEWVSSISSSGGGTLYADSVKGRFTISRDNSKNTLYLQMNSLRAEDTAVYYCARDSDTSSYYWYYDLWGRGTLVTVSS VL: DIQMTQSPSSLSASVGDRVTITCQASHDISNYLNWYQQKPGKAPKLLIYAASRLQSGVPSRFSGGGSGTDFSLTISSLQAEDFATYYCQQSYSFPRTFGQGTNLEIKR: 8.95

Let us move to another entry and its pKd.
Item M0064-F02 Fab (Fab, V domains shown, soluble Fab (sFab); also the Fab crystallised with IGF-II; also called R0032-A11; 566A-M0064-F02) VH: EVQLLESGGGLVQPGGSLRLSCAASGFTFSNYIMWWVRQAPGKGLEWVSVISSSGGMTRYADSVKGRFTISRDNSKNTLYLQMNSLRAEDTAVYYCARDNGDYVGEKGFDIWGQGTMVTVSS VL: DIQMTQSPSSLSASVGDRVTITCRASQSISNYLNWYQQKPGKAPKLLIYTASTLQSGVPSRFSGSASGTDFTLTINSLQPEDFATYSCQQSYNSPWTFGQGTKVEIKR : provide pKd 9.30

Where do these numbers come from? They come from patent US20110165145A1.
